The following compounds are shown together with reported pIC50 values.
molecular target: UniProt:P0DTD1; assay: FRET based protease assay, SARS-CoV-2 3CL
pIC50: −log10 of the molar value.

Look over these answered cases.
compound	assay-target	pIC50
CC1(C(=O)N[C@H]2CCCC[C@H]3CNC(=O)[C@H]3C[C@@H](C#N)NC(=O)[C@@H]3[C@@H]4[C@H](CN3C2=O)C4(C)C)COC1	UniProt:P0DTD1	> 7.00
CC(C)(C)CC(=O)N[C@H]1CCCC[C@H]2CNC(=O)[C@H]2C[C@@H](C#N)NC(=O)[C@@H]2[C@@H]3[C@H](CN2C1=O)C3(C)C	UniProt:P0DTD1	> 7.00
CC(C)C[C@@H]1NC(=O)[C@H](Cc2ccccc2)CCC[C@H]2CNC(=O)[C@H]2C[C@@H](C=O)NC1=O	UniProt:P0DTD1	6.00 to 7.00
CC(C)(C)OC(=O)N[C@H]1CCCC[C@H]2CCNC(=O)[C@H]2C[C@@H](C#N)NC(=O)[C@@H]2[C@@H]3[C@H](CN2C1=O)C3(C)C	UniProt:P0DTD1	> 7.00
CC1(C)[C@@H]2[C@H]3C(=O)N[C@H](C#N)C[C@@H]4C(=O)NCC[C@@H]4CCCC[C@H](NC(=O)C(F)(F)F)C(=O)N3C[C@@H]21	UniProt:P0DTD1	> 7.00

Which value of pIC50 has been reported for `CC1(C)[C@@H]2[C@H]3C(=O)N[C@H](C#N)C[C@@H]4C(=O)NC[C@@H]4/C=C/CC[C@H](NC(=O)C(F)(F)F)C(=O)N3C[C@@H]21` in the records?
> 7.00

Which value of pIC50 has been reported for CC1(C)[C@@H]2[C@H]3C(=O)N[C@H](C#N)C[C@@H]4C(=O)NC[C@@H]4CCCC[C@H](NC(=O)C4CC5(CCC5)C4)C(=O)N3C[C@@H]21 (stereo partly drawn) in the records?
> 7.00

Which value of pIC50 has been reported for `CC(C)(C)C(=O)N[C@H]1CCCC[C@H]2CNC(=O)[C@H]2C[C@@H](C#N)NC(=O)[C@@H]2[C@H]3CCC[C@H]3CN2C1=O` in the records?
> 7.00

Which value of pIC50 has been reported for `N#C[C@@H]1C[C@@H]2C(=O)NC[C@@H]2CCCC[C@H](NS(=O)(=O)c2ccc(F)cc2F)C(=O)N2C[C@@H]3CCC[C@@H]3[C@H]2C(=O)N1` in the records?
> 7.00

Which value of pIC50 has been reported for `CC(C)C[C@@H]1NC(=O)[C@@H](N(C)C(=O)OC(C)(C)C)CCC[C@H]2CNC(=O)[C@@H]2C[C@@H](C#N)NC1=O` in the records?
< 4.70

Which value of pIC50 has been reported for `CC(C)(C)C(=O)N[C@H]1C/C=C\[C@H]2CNC(=O)[C@H]2C[C@@H](C#N)NC(=O)[C@@H]2[C@@H]3[C@H](CN2C1=O)C3(C)C` in the records?
< 4.70

Which value of pIC50 has been reported for `CC1(C)[C@@H]2[C@H]3C(=O)N[C@H](C#N)C[C@@H]4C(=O)NC[C@@H]4CCCC[C@H](NC(=O)c4ccc(F)cc4)C(=O)N3C[C@@H]21` in the records?
> 7.00
